The entries below are paired with their reported log10 IC50.
# study-system: Human immunodeficiency virus type 1 reverse transcriptase (Human immunodeficiency virus 1)
Reminder: these figures are log10 of reported IC50, in µM before transformation.

*Q* Quick check: log10 IC50 on Human immunodeficiency virus type 1 reverse transcriptase (Human immunodeficiency virus 1), item Cc1cc(C)cc(C23SCCN2C(=O)c2ccccc23)c1 (stereo unspecified) ?
*A* -1.08

*Q* Please provide the recorded log10 IC50 for COc1cccc(C23SCCN2C(=O)c2ccccc23)c1 (stereo unspecified) , tested on Human immunodeficiency virus type 1 reverse transcriptase (Human immunodeficiency virus 1).
*A* -0.01

*Q* log10 IC50 of `O=C1c2ccc(Cl)cc2[C@@]2(c3ccccc3)SCCN12` on Human immunodeficiency virus type 1 reverse transcriptase (Human immunodeficiency virus 1)?
*A* -1.05
